Each recorded value in this set is attributed to the supplement of paper PMC10307832.

# relative viability annotations
tested on: HCC-15; assay: relative viability (nuclei count vs DMSO), 5 days (fraction); higher = more cells survive; settings: first compound 0.3162 µM

molecule	relative viability
CC(C)Oc1cc(Nc2nc(N[C@@H](C)c3ccc(F)cn3)ncc2Cl)n[nH]1 [AZ23] + CS(=O)(=O)N1CCN(Cc2cc3nc(-c4cccc5[nH]ncc45)nc(N4CCOCC4)c3s2)CC1 [Pictilisib] (partner 1 µM)	0.782
CC(C)Oc1cc(Nc2nc(N[C@@H](C)c3ccc(F)cn3)ncc2Cl)n[nH]1 [AZ23] + CC(=O)c1c(C)c2cnc(Nc3ccc(N4CCNCC4)cn3)nc2n(C2CCCC2)c1=O [Palbociclib] (partner 0.5 µM)	0.799
